Reference source for all entries: PubChem BioAssay AID504438

Biological target: Type-1 angiotensin II receptor (Homo sapiens)
Test: AT1 receptor antagonist selectivity testing, SAR follow-up, selectivity assay for APJ receptor antagonist project, cell-based, CHO-K1 AGTR1, beta-arrestin, luminescence, set 4 (AID 504438)
Details: CHO-K1 AGTR1 beta-arrestin complementation
Calls of active or inactive are those of the source.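 The calls were made as follows: active = IC50 below 20 µM in the dose response test; inactive = the rest.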
assay-endpoint: IC50

Sample records with IC50:
> print(dat)
                               query.smiles  assay.endpoint  recorded.measurement
1  O=C(Oc1coc(CSc2ccc(Cl)cc2)cc1=O)c1ccc(Cl)c([N+](=O)[O-])c1            IC50    > 79 µM (inactive)
2  COc1ccc(SCc2cc(=O)c(OC(=O)c3ccc(Cl)c([N+](=O)[O-])c3)co2)cc1            IC50    > 79 µM (inactive)
3  O=C(Oc1coc(CSc2ccc(OC(F)(F)F)cc2)cc1=O)c1ccc(Cl)c([N+](=O)[O-])c1            IC50    > 79 µM (inactive)

Supply recorded IC50 for Cc1ccc(SCc2cc(=O)c(OC(=O)c3ccc(Cl)c([N+](=O)[O-])c3)co2)cc1 here. > 79 µM (inactive)
